# Method: Hydrolytic stability in KPi buffer without thiol (NMR)
# Assay type: physicochemical
# Measurement Setup: pH 8.2; over 12 hours; 50 mM KPi; footnote a: crashing out of solution, no degradation product
Observable: % degradation

1) O=[N+]([O-])c1ccc(S(=O)(=O)c2ncccn2)cc1 = 100%
2) CS(=O)(=O)c1nccc(-c2ccccc2)n1 = 50%
3) CS(=O)(=O)c1ncc(Br)cn1 = < 5%
4) Cc1cnc(S(C)(=O)=O)nc1 = < 5%
5) Cc1ccnc(S(C)(=O)=O)n1 = 10%

INPUT: Supply reported % degradation belonging to this compound: `O=S(=O)(c1ccccc1)c1ncccn1`
OUTPUT: 10%

INPUT: Supply reported % degradation belonging to this compound: `CS(=O)(=O)c1ncc(C(F)(F)F)cn1`
OUTPUT: 100%

INPUT: Supply reported % degradation belonging to this compound: `CS(=O)(=O)c1ncc(Cl)cn1`
OUTPUT: 7%

INPUT: Supply reported % degradation belonging to this compound: CS(=O)(=O)c1nnnn1-c1ccccc1 [compound 7, 1-phenyl 5-methylsulfonyl tetrazole, reference compound]
OUTPUT: 8%

INPUT: Supply reported % degradation belonging to this compound: `O=S(=O)(CC(F)(F)F)c1ncccn1`
OUTPUT: 100%

INPUT: Supply reported % degradation belonging to this compound: `CS(=O)(=O)c1ncc(I)cn1`
OUTPUT: 14%

INPUT: Supply reported % degradation belonging to this compound: `COC(=O)c1ccnc(S(C)(=O)=O)n1`
OUTPUT: 100%

INPUT: Supply reported % degradation belonging to this compound: Cc1cc(C)c([N+](=O)[O-])c(S(C)(=O)=O)n1 [compound 12, reference compound]
OUTPUT: < 5%

* * *

# Method: GSH arylation rate constants (NMR; UV-vis for fast warheads)
# Format: physicochemical
# Measurement Setup: pH 7.0; ratio to rate constant of 4q; acceleration (+) or deceleration (-)
Observable: k change (vs ref) (fold)
# value in fold; strip the unit string

Reference set (4 entries):
1. CC(C)(C)S(=O)(=O)c1ncccn1 = -139
2. O=S(=O)(NCc1ccccc1)c1ncccn1 = -63
3. CS(=O)(=O)c1nccc(-c2ccccc2)n1 = -5
4. COc1cc(OC)nc(S(C)(=O)=O)n1 = -3

Next up:
INPUT: Supply reported k change (vs ref) belonging to this molecule: `Cc1cc(C)nc(S(C)(=O)=O)n1`
OUTPUT: -25

* * *

# Test Target: β-catenin ARD (Homo sapiens, UniProt P35222)
# Construct: vector pLipK-ARD (residues 150 – 662) was used; 6xHis-Lip (6xHis, lipoyl domain); made in house; host or cells: E. coli BL21(DE3) pRARE2
# Sequence (P35222 150-662): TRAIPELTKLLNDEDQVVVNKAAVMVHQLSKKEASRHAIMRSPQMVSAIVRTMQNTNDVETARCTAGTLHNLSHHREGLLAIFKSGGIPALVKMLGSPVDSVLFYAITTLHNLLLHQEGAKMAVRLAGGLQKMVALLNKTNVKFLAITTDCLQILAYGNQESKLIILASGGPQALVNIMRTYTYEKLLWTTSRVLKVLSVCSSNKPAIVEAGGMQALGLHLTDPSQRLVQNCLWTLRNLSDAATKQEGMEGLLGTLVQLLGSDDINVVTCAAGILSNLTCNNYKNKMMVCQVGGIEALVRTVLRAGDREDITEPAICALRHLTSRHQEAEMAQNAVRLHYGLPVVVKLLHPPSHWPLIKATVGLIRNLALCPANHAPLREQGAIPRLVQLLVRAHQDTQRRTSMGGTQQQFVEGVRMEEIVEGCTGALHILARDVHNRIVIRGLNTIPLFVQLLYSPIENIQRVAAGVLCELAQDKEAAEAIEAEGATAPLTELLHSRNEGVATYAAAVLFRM
# Method: Differential scanning fluorimetry (DSF)
# Assay type: binding
# Measurement Setup: 100 μM compound; 8 µM β-cat; read-out: Protein thermal stability ΔTm
# Text: We also probed the general effect of 2-SPs on protein stability by using differential scanning fluorimetry (DSF). […] Mutants of the 25 kDa DNA-binding domain of the tumor suppressor p53 are notorious for their reduced thermal stability and denaturation/aggregation propensity.[37] The 56 kDa armadillo domain (ARD) of β-catenin mediates canonical Wnt signaling and plays a central role in embryogenesis and tissue homeostasis.[38] […]
Observable: ΔTm at 100 µM (°C)
# value in °C; strip the unit string

Reference set (4 entries):
1) CS(=O)(=O)c1ncccn1 = -0.1
2) CS(=O)(=O)c1ncc(C(=O)O)cn1 = -1.3
3) CS(=O)(=O)c1nccc(-c2ccccc2)n1 = -0.1
4) CC(C)(C)S(=O)(=O)c1ncccn1 = -0.1

INPUT: Supply reported ΔTm at 100 µM belonging to this compound: `O=[N+]([O-])c1ccc(S(=O)(=O)c2ncccn2)cc1`
OUTPUT: -0.1

INPUT: Supply reported ΔTm at 100 µM belonging to this compound: `CS(=O)(=O)c1nccc(C(=O)O)n1`
OUTPUT: -0.1

These data points were gathered from paper PMC10515483.
